system: Plasmodium falciparum; assay: Screen against P. falciparum Asexual Blood Stage (ABS), at 5uM; type: functional, Dd2; settings: tested at 5 uM
In all, about 65,000 compounds went through this assay and about 2,100 (3.2%) showed an effect of 50% or more. The median lay at about -52%. This is one part of a sample in which strong results are shown more often than they occur.
recorded.endpoint: INHIBITION (%)
Numbers only, in %.

Known results for molecules:
CN(C)CCCn1ccnc1C1CCCN(c2ncc(Cl)cc2F)C1 (configuration not stated) ... 84.4
COc1ccc(CN(Cc2ccccn2)Cc2cncn2C)cc1 ... 70.1

Fill in INHIBITION for each of the 5 molecules listed.
1. Cc1cnc(CN2CC=C(c3c[nH]c4ncccc34)CC2)o1
2. CCN1CCC12CCN(C(=O)c1cc(C)on1)C2 (configuration not stated)
3. OCCN1CCCC(c2cccc(-c3ccccc3F)n2)C1 (configuration not stated)
4. Cc1cc(CN2CCN(C(=O)Cc3ccccc3F)CC2)on1
5. CN1CCN(Cc2ccccc2CNC(=O)c2cc(Br)ccc2F)CC1

Ans:
12.6
-10.1
83.4
-206
77.5
